assay text: NCI Yeast Anticancer Drug Screen. Data for the cln2 rad14 strain (AID 165);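 also: 0% = growth equal to vehicle treated cultures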
condition parameters: S. cerevisiae cln2 rad14 strain, at 50.0 µM, active compounds read high
This is part of a sample that, as a whole, favours compounds with a hit. Of some 79,000 tested, about 15% had one in any assay.
measure name: growth inhibition (%)

>>> number("O=[N+]([O-])c1ccc2oc(=Nc3ccccc3)c(Nc3ccccc3)nc2c1")
15.9
>>> number("CN(C)CCCN1c2ccccc2Sc2ccc3ccccc3c21")
-25.9
>>> number("COc1cc(/C=C/c2ccc([N+](=O)[O-])cc2[N+](=O)[O-])ccc1O")
19.1

###

assay text: NCI Yeast Anticancer Drug Screen. Data for the sgs1 mgt1 strain (AID 161);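 also: 0% = growth of cultures given vehicle only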
condition parameters: S. cerevisiae sgs1 mgt1 strain, at 50.0 µM, active compounds read high
The panel holds about 79,000 compounds, 15% with a hit somewhere; the sample as a whole holds those more often. Where a SMILES comes first, the peptide text is derived from it. The star is where a group is joined. Cbz = O=C(OCc1ccccc1)*
measure name: growth inhibition (%)

>>> number("CCC[N+]1([O-])CCOCC1")
-5.55
>>> number("NC1CC(=O)N(Cc2ccccc2)C1=O (stereo not drawn)")
-9.8
>>> number("CCOC(=S)Sc1ccc2c(c1)-c1ccc(F)cc1C2=O")
2.1
>>> number("CC(=O)Nc1cc(F)c(NC(C)=O)c(F)c1")
-18.9
>>> number("O=C(Cn1ccccc1=O)c1ccc(F)cc1")
0
>>> number("CSc1ccc(NC(=O)NNP(=S)(Oc2ccc(C(C)(C)C)cc2)Oc2ccc(C(C)(C)C)cc2)cc1")
0.5
>>> number("c1ccc(SC(Sc2ccccc2)=C2CCC2)cc1")
10.4
>>> number("COc1ccc(N=Nc2c(C)nc(N)nc2C)cc1")
8.05
>>> number("COC(=O)C(CC(C)C)NC(=O)C(CCCN=C(N)N)NC(=O)OCc1ccccc1 (stereo not drawn) (Cbz-Arg-Leu-OMe; configuration not given here)")
-15.7
>>> number("CC(O)C(O)C(O)C(O)C=O (stereo not drawn)")
3.8
>>> number("CCN(CC)CC1CCCCCCCCCCC1=O (stereo not drawn)")
-32.7
>>> number("COc1ccc(/C(=N/N)c2ccccc2)cc1")
-23.6
>>> number("CCOP(=O)(OCC)C(Cc1ccc(OC)c(OC)c1)N=C(c1ccccc1)c1ccccc1 (stereo not drawn)")
-12.2

###

assay text: NCI Yeast Anticancer Drug Screen. Data for the sgs1 mgt1 strain (AID 161);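 also: 0% = growth of cultures given vehicle only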
condition parameters: S. cerevisiae sgs1 mgt1 strain, at 50.0 µM
This is part of a sample that, as a whole, favours compounds with a hit. Of some 79,000 tested, about 15% had one in any assay. The source made the active and inactive calls. Cut-off read from the data, not from the text of the source: active = growth inhibition above about 70%; inactive = the rest.
Outcome codes: yes (1) for active, no (0) for inactive

>>> label_class("COc1cc(CN2CCCCC2)cc2cc(C(=O)O)c(=O)oc12")
"no (0)"
>>> label_class("N#Cc1n[nH]n(C2CCCCC2)c1=O")
"no (0)"
>>> label_class("CC(=O)NNC(=O)c1ccccc1CO")
"no (0)"
>>> label_class("Nc1nc(N)c(N=Nc2cc(Cl)cc(Cl)c2)c(=O)[nH]1")
"no (0)"
>>> label_class("CN(C)c1ccc(/C=C/c2ccnc3ccc(Br)cc23)cc1")
"no (0)"
>>> label_class("O=c1[nH]c2cc(Cl)ccc2nc1/C=C(\\O)c1ccc2ccccc2c1")
"no (0)"
>>> label_class("CC1(C)/C(=C\\C(=O)O)C2CCC1C2 (configuration not stated)")
"no (0)"
>>> label_class("CNC(=O)N(C)c1cc(N(C)C)nc(OC)n1")
"no (0)"
>>> label_class("COc1cc(/C=C/c2cc(/C=C/c3ccc(O)c(OC)c3)c([N+](=O)[O-])cc2[N+](=O)[O-])ccc1O")
"no (0)"
>>> label_class("COC(=O)CCN(C)c1ccccc1")
"no (0)"
>>> label_class("COC(=O)C(Cc1nc2ccccc2[nH]c1=O)/C(=N\\NC(C)(C)C)C(=O)Nc1c(C)cc(Br)cc1C (configuration not stated)")
"no (0)"
>>> label_class("OCc1ccccc1C(c1ccc(O)cc1)c1ccc(O)cc1")
"no (0)"
>>> label_class("CCc1cc2c(cc1C(=O)/C=C\\c1ccco1)C(C)(C)CCC2(C)C")
"yes (1)"
>>> label_class("CCC(O)C(C)[N+](=O)[O-] (configuration not stated)")
"no (0)"
>>> label_class("Cc1ccc(S(=O)(=O)SC(SCC(=O)c2ccc(Br)cc2)C(=O)c2ccc(Br)cc2)cc1 (configuration not stated)")
"no (0)"
>>> label_class("CC(NC(=O)C(NC(=O)c1ccc[n+](Cc2ccccc2)c1)C(C)C)C(N)=O (configuration not stated)")
"no (0)"
>>> label_class("CCOCCC12CCCCC1C/C(=N/OC(C)=O)c1ccccc12 (configuration not stated)")
"no (0)"

###

assay text: NCI Yeast Anticancer Drug Screen. Data for the cln2 rad14 strain (AID 165);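 also: 0% = growth equal to vehicle treated cultures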
condition parameters: S. cerevisiae cln2 rad14 strain, at 50.0 µM, active compounds read high
This is part of a sample that, as a whole, favours compounds with a hit. Of some 79,000 tested, about 15% had one in any assay.
Param threshold (10%) applies to growth inhibition; output rule met when value >= threshold, rule not met when value < threshold.

>>> label_class("Cc1ccc(S(=O)(=O)N2CC(O)C=Cc3ccccc32)cc1 (stereo not drawn)")
"rule met"
>>> label_class("CC(C(O)c1ccccn1)[N+](=O)[O-] (stereo not drawn)")
"rule not met"
>>> label_class("CCCC(C)C1(CCC)C(=O)N=C(N)N=C1N (stereo not drawn)")
"rule met"
>>> label_class("COc1ccccc1Oc1ccccc1")
"rule met"
>>> label_class("O=C(O)CCC(=O)C(Cc1ccccc1)NC(=O)c1ccccc1 (stereo not drawn)")
"rule not met"
>>> label_class("CC(C)(C)OC1COCCO1 (stereo not drawn)")
"rule not met"
>>> label_class("O=S(=O)(O)c1ccc(N=Nc2c(O)cc(O)cc2O)cc1")
"rule met"
>>> label_class("O=C1NS(=O)(=O)c2cc(Cl)ccc21")
"rule not met"

###

assay text: NCI Yeast Anticancer Drug Screen. Data for the mlh1 rad18 strain (AID 175)
condition parameters: S. cerevisiae mlh1 rad18 strain growth inhibition; at 50.0 µM; active compounds read high
About 79,000 compounds went through this panel and 15% of them were active in at least one assay; those are over-represented in the sample as a whole.
measure name: growth inhibition (%)

>>> number("CCOC(=O)C1=NN(c2ccc(C)cc2)C2=CC(C)=NN(C)C(=S)N21")
-49.3
>>> number("CC(=O)NC(CCCCN(Cc1ccccc1)C(=O)N(C)N=O)C(=O)NCc1ccccc1 (configuration not stated)")
-6.4
>>> number("C/C(=N/N(C)c1ccccc1)C(C)C")
10.7
>>> number("CCCOC(=O)c1ccccc1C(=O)OC1CCCCC1")
-8.65
>>> number("c1cc2[nH]snc2c2cncc12")
6.6
>>> number("COc1ccccc1-n1on1-c1ccccc1OC")
20.1
>>> number("CC1OC(OC2C(OC(=O)[C@@H]3CC(C)(C)C[C@@H]4C5=CC[C@@H]6[C@@]7(C)C[C@H](O)[C@H](OC8OC(CO)C(O)C(O)C8O)[C@@](C)(CO)C7[C@H](O)C[C@@]6(C)[C@]5(C)C[C@@H](O)[C@H]43)OCC(O)C2O)C(O)C(O)C1O (some centres not stated)")
-49.7
>>> number("CN(C/C=C/CN(C)C(=S)Nc1ccccc1)C(=S)Nc1ccccc1")
5.65
>>> number("Cc1nn2c(-c3ccccc3)cnnc2c1-c1ccccc1")
-10.8
>>> number("N#C/C(=C\\c1ccccc1)c1cccc(Cl)c1")
-12.7
>>> number("Nc1nc(N)[n+]([O-])c(N)c1NCO")
-25.3
>>> number("O=C(Cc1cccc2ccccc12)NO")
11.6
>>> number("CC(=O)c1nc2ccccc2n1CC(=O)c1ccc(Cl)cc1")
-3.55
>>> number("COc1cccc(C(=O)CCN(C)C)c1")
28.1
>>> number("CC(=O)c1ccc2cc(Cl)ccc2c1")
4.2
>>> number("CC(O)C(O)C(O)C(O)C=O (configuration not stated)")
-10.2
>>> number("c1ccc2c(c1)CNNC2")
-8.1
>>> number("[O-][n+]1c(CN2CCCCC2)nc2cccc3c2c1-c1ccccc1-3")
13.1
>>> number("COc1ccc(N(C)C(=S)c2ccccc2)cc1")
-10.9
>>> number("CC(NC(=O)C(NC(=O)c1ccc[n+](Cc2ccccc2)c1)C(C)C)C(N)=O (configuration not stated)")
23.4
>>> number("CCN(CC)CCCCCOC(=O)c1cccc(N)c1")
-10.1
>>> number("COc1ccc(-c2cc(-c3ccccc3)n(-c3ccccc3)n2)cc1")
-15.4
